B1: Homeobox expressed in ES cells 1, residues 110 to 165; numbered along this chain, Q9UBX0 (parent)
chain: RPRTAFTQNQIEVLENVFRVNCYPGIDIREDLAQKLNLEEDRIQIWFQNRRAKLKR

Variants of: B1
Test: abundance fitness (aPCA) (normalised: wild type 0, dead -1); higher = more abundant; growth selection in yeast, the domain comes from the species named
Conditions: Homo sapiens
Recorded abundance fitness by entry
MEASURE NAME: abundance fitness

INSERT INTO measurements (mutation_name, measure_name, endpoint_result) VALUES
  ('F6T', 'abundance fitness', -0.859),
  ('I11K', 'abundance fitness', -0.237),
  ('R3H', 'abundance fitness', -0.433),
  ('V17S', 'abundance fitness', -0.335),
  ('V17M', 'abundance fitness', -0.197),
  ('Q10D', 'abundance fitness', -0.287),
  ('E12S', 'abundance fitness', 0.016),
  ('V13D', 'abundance fitness', -0.757),
  ('T7R', 'abundance fitness', -0.587),
  ('P2T', 'abundance fitness', 0.126),
  ('F6M', 'abundance fitness', 0.123),
  ('P2G', 'abundance fitness', 0.309),
  ('P24M', 'abundance fitness', -0.815),
  ('V20S', 'abundance fitness', 0.072),
  ('E12W', 'abundance fitness', -0.704),
  ('A5I', 'abundance fitness', 0.275),
  ('V20M', 'abundance fitness', -0.091),
  ('A5S', 'abundance fitness', 0.424),
  ('E30M', 'abundance fitness', -0.189),
  ('F18Y', 'abundance fitness', -0.083),
  ('R29N', 'abundance fitness', -0.864),
  ('Q34G', 'abundance fitness', -0.168),
  ('A5E', 'abundance fitness', 0.596),
  ('R1Y', 'abundance fitness', 0.406),
  ('R3I', 'abundance fitness', 0.485),
  ('G25C', 'abundance fitness', -0.282),
  ('V17I', 'abundance fitness', -0.091),
  ('R29I', 'abundance fitness', -0.2),
  ('Q8K', 'abundance fitness', -0.179),
  ('V17R', 'abundance fitness', -0.84),
  ('Q10M', 'abundance fitness', 0.017),
  ('T4W', 'abundance fitness', -0.501),
  ('P2Q', 'abundance fitness', 0.386),
  ('E12Q', 'abundance fitness', 0.154),
  ('D31L', 'abundance fitness', -0.411),
  ('T4F', 'abundance fitness', 0.052),
  ('I26T', 'abundance fitness', -0.341),
  ('I11T', 'abundance fitness', -0.187),
  ('N21M', 'abundance fitness', -0.058);
